This collection of values is drawn from ChEMBL document CHEMBL1154109.

Quick note: these are IC50 numbers for system: Dihydrofolate reductase (Candida albicans, UniProt P22906)
Sequence (P22906 whole entry): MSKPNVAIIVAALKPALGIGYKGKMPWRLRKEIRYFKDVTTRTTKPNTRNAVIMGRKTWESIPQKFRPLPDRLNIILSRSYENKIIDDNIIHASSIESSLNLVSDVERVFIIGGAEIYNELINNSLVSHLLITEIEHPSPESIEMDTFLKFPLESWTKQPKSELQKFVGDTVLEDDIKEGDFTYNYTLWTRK

COMPOUND	IC50 (µM)
CCc1nc(N)nc(N)c1C#CCc1cc(OC)c(OC)c(OC)c1	0.018
CCc1nc(N)nc(N)c1C#CCc1cc(OC)ccc1OC	0.1
COc1cc(-c2ccc(C)cc2)cc(C(C)C#Cc2c(C)nc(N)nc2N)c1 (racemic)	0.022
COc1cc(-c2cc(C)cc(C)c2)cc(C(C)C#Cc2c(C)nc(N)nc2N)c1 (racemic)	0.017
COc1ccc(OC)c(CC#Cc2c(C)nc(N)nc2N)c1	0.41
COc1cc(C(O)C#Cc2c(C)nc(N)nc2N)cc(OC)c1OC (racemic)	0.98
COc1cc(C(C)C#Cc2c(C)nc(N)nc2N)ccc1-c1c(C(C)C)cccc1C(C)C (racemic)	0.041
COc1cc(C(C)C#Cc2c(C)nc(N)nc2N)ccc1-c1c(C)cccc1C (racemic)	0.032
COc1cc(CC#Cc2cnc(N)nc2N)cc(OC)c1OC	0.82
COc1cc(C(O)C#Cc2cnc(N)nc2N)cc(OC)c1OC (racemic)	11.9
